Tested on: TO-N3 (biotin conjugate)
Assay: pull-down binding Z-score (relative to library population); higher = stronger binding
Conditions: RNA library: Library-2
Response key: T means pull-down binding Z-score >= -0.2; F means pull-down binding Z-score < -0.2.

Solved cases (6 shown):
[
  {
    "inputSequence": "UCAGCUGUGAGCUCAAGGUGGCUGG [hsa-mir-30c-1]",
    "classAssignment": "T"
  },
  {
    "inputSequence": "AUCAUCUCUCCCUUGGAU [hsa-mir-3683]",
    "classAssignment": "F"
  },
  {
    "inputSequence": "CUCCUUUGAUGGUUGCAUACAUGUUGGAG [IAV_invivo_PB2_1_Motif_8+IAV_invivo_PB2_1_Motif_8]",
    "classAssignment": "F"
  },
  {
    "inputSequence": "AGCCCUGGGCUCCUCAGCAAACCUACUGGAU [hsa-mir-3174]",
    "classAssignment": "T"
  },
  {
    "inputSequence": "CUCUCAUUUUGUUAACUUAGACAACCUGAGAG",
    "classAssignment": "F"
  },
  {
    "inputSequence": "UCCUUUGACAUGAGUAAUGAAGGAUCUUAUUUCUUCGGAGACAAUGCAGAGGA [IAV_invivo_NP_5_Motif_26+IAV_invivo_NP_5_Motif_26]",
    "classAssignment": "F"
  }
]

Qu. Has CUGCUGCCGAUUCUGCACCAG [hsa-mir-4756] a recorded pull-down binding Z-score greater than or equal to -0.2?
Ans. F
